Protocol Details: chemical genetic growth profiling, strain panel (AID 1159580);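 note: tested at 20 µM; growth read once vehicle control cultures reached saturation at 30 °C; 1 = growth at the plate median or of vehicle wells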
Condition Context: S. cerevisiae deletion strains, growth OD, locus YGR135W, strain pre9
In all, about 5,500 compounds went through this assay and about 2,000 (36%) were called active. Another 18% or so got no clear call; they are omitted. Cut-off read from the data, not from the text of the source: active = normalized growth mostly below about 0.91 (no sharp cut-off); inconclusive = no clear call, values can overlap the other calls; inactive = mostly above about 0.92. The list shows a part of the results.
Outcome codes: 1 = active, -1 = inactive

Compound	Label Class
CC(N)C(O)c1ccc(O)c(O)c1 (stereo unspecified)	-1
C1CCC(C(CC2CCCCN2)C2CCCCC2)CC1 (stereo unspecified)	1
COc1cc2c(cc1OC)[C@@H]1C(=O)c3ccc4c(c3O[C@@H]1CO2)CC(C(C)C)O4 (stereo partly specified)	-1
CC(=O)CC1CCCCN1 (stereo unspecified)	-1
CC1=CC(=O)C2=C(C)CC(O)C3C(C)C(=O)OC3C12 (stereo unspecified)	-1
O=c1c(O)c(-c2ccc(O)c(O)c2)oc2cc(O)ccc12	1

* * *

# normalized growth values compiled below
Protocol Details: chemical genetic growth profiling, strain panel (AID 1159580)
Condition Context: S. cerevisiae deletion strains, growth OD, locus YLR027C, strain aat2, stronger effect = lower value
The whole screen tested about 5,500 compounds, of which about 2,000 (36%) were called active. Roughly 18% stayed inconclusive and do not appear here. The list shows a part of the results.

Compound	normalized growth
C=C(C)[C@H]1Cc2c(ccc3c2O[C@@H]2COc4cc(OC)c(OC)cc4[C@@H]2C3=O)O1	0.978
CC(=O)[C@@]1(O)CCC2C3CCC4=CC(=O)CC[C@]4(C)C3CC[C@@]21C (stereo partly drawn)	1
CC[C@H]1OC(=O)[C@H](C)[C@@H](O[C@H]2C[C@@](C)(OC)[C@@H](O)[C@H](C)O2)[C@H](C)[C@@H](O[C@@H]2O[C@H](C)C[C@H](N(C)C)[C@H]2O)[C@](C)(O)C[C@@H](C)[C@@H]2N[C@@H](COCCOC)O[C@H]([C@H]2C)[C@]1(C)O	0.991

* * *

Protocol Details: chemical genetic growth profiling, strain panel (AID 1159580)
Condition Context: S. cerevisiae deletion strains, growth OD, locus YDR150W, strain NUM1, stronger effect = lower value
Screen size: about 5,500 compounds; about 2,000 (36%) were called active. Inconclusive results (about 18%) are left out. The list shows a part of the results.
Quick list: normalized growth per entry.

Compound	normalized growth
NCC(O)c1cc(O)c(O)cc1F (configuration not stated)	1.02
COc1ccc(C(=O)O)c(O)c1OC	1.01
CN(C(=O)Nc1ccccc1)n1cnc2ccccc2c1=O	0.917
CCCCc1nc(Cl)c(CO)n1Cc1ccc(-c2ccccc2-c2nn[nH]n2)cc1	1.01
CCOc1ccc(C(=O)c2cc(O)c(OC)c(OC)c2O)cc1	1.01
c1ccc([C@H]2CN3CCSC3=N2)cc1	1.01
CCOc1ccc(NC(C)=O)cc1	0.991

* * *

Protocol Details: chemical genetic growth profiling, strain panel (AID 1159580)
Condition Context: S. cerevisiae deletion strains, growth OD, locus YGR252W, strain gcn5, stronger effect = lower value
In all, about 5,500 compounds went through this assay and about 2,000 (36%) were called active. Inconclusive results (about 18%) are left out. The list shows a part of the results.
Quick list: normalized growth per entry.
Measure Name: normalized growth

Molecule	Observed Measurement
COc1ccc(C(=O)O)c(O)c1OC	1.06 (inactive)
Cc1ccc(N(CC2=NCCN2)c2cccc(O)c2)cc1	0.926 (inactive)
C[C@]12CCC(=O)C=C1CCC1C2[C@@H](O)C[C@@]2(C)C1CC[C@]2(O)C(=O)COC(=O)CCC(=O)O (some centres undefined)	0.943 (inactive)
COc1ccc(C(=O)c2ccccc2)c(O)c1O	0.698 (active)
O=C(CCc1ccc(O)cc1)c1c(O)cc(O)cc1O[C@@H]1O[C@H](CO)[C@@H](O)[C@H](O)[C@H]1O	1.01 (inactive)
C#CC1(O)CCC2C3CCC4=CC(=O)CCC4(C)C3CCC21C (centres undefined)	0.956 (inactive)
CO[C@@]1(NC(=O)Cc2cccs2)C(=O)N2C(C(=O)O)=C(COC(N)=O)CS[C@@H]21	0.982 (inactive)
CCOc1ccc(C(=O)c2cc(O)c(OC)c(OC)c2O)cc1	1.03 (inactive)
CO[C@H]1C[C@H](O[C@H]2[C@H](C)[C@@H](OC3O[C@H](C)C[C@H](N(C)C)[C@H]3OC(C)=O)[C@@H](C)C[C@]3(CO3)C(=O)[C@H](C)[C@@H](OC(C)=O)[C@@H](C)[C@@H](C)OC(=O)[C@@H]2C)O[C@@H](C)[C@@H]1OC(C)=O (some centres undefined)	0.933 (inactive)
COc1cc(-c2coc3cc(O[C@@H]4O[C@H](CO)[C@@H](O)[C@H](O)[C@H]4O)c(OC)c(O)c3c2=O)cc(O)c1OC	0.997 (inactive)
CC1(C)C(=O)[C@@H]2O[C@@H]2[C@@]2(C)C1CC(=O)[C@]1(C)C2CC[C@@]2(C)[C@H](c3ccoc3)OC(=O)[C@H]3O[C@]321 (some centres undefined)	0.962 (inactive)
CC(=O)OCC(=O)[C@@]1(O)CCC2C3CCC4=CC(=O)CC[C@]4(C)C3[C@@H](O)C[C@@]21C (some centres undefined)	0.947 (inactive)
Cc1cc(C(C)(C)C)c(O)c(C)c1CC1=NCCN1	0.967 (inactive)
COc1ccc(C(=O)c2ccc(O)cc2)c(O)c1O	0.893 (inactive)
COC(=O)[C@]1(C)CC[C@]2(C)CC[C@]3(C)C4=CC=C5C(=CC(=O)C(O)=C5C)[C@]4(C)CC[C@@]3(C)[C@@H]2C1	0.932 (inactive)
Cc1cc(C(C)(C)C)cc(C)c1CC1=NCCN1	0.951 (inactive)
CCOc1cccc(C(=O)c2ccc(O)c(O)c2O)c1	0.77 (inactive)
CCOc1ccc(C(=O)c2ccc(O)c(O)c2O)cc1	0.861 (inactive)
NC(=O)N1c2ccccc2C=Cc2ccccc21	1.06 (inactive)

* * *

Protocol Details: chemical genetic growth profiling, strain panel (AID 1159580);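 note: tested at 20 µM; growth read once vehicle control cultures reached saturation at 30 °C; 1 = growth at the plate median or of vehicle wells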
Condition Context: S. cerevisiae deletion strains, growth OD, locus YOL012C, strain htz1
Out of some 5,500 compounds screened, about 2,000 (36%) were called active. Another 18% or so got no clear call; they are omitted. Some of the results follow.
The threshold is inclusive: normalized growth of exactly 1 counts as true; values below receive false.

Input Smiles	Label Class
Cc1cc(C(C)(C)C)cc(C)c1CC1=NCCN1	true
COc1ccc2c(c1)[C@]13CCCC[C@H]1[C@H](C2)N(C)CC3	false
OCCN1CCN(CCCN2c3ccccc3Sc3ccc(C(F)(F)F)cc32)CC1	true
NC(N)=NC(N)=Nc1ccccc1	true
Cc1ccc(N(CC2=NCCN2)c2cccc(O)c2)cc1	true

* * *

Protocol Details: chemical genetic growth profiling, strain panel (AID 1159580);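 note: tested at 20 µM; growth read once vehicle control cultures reached saturation at 30 °C; 1 = growth at the plate median or of vehicle wells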
Condition Context: S. cerevisiae deletion strains, growth OD, locus YKL048C, strain ELM1, stronger effect = lower value
Among all 5,500 compounds or so, about 2,000 (36%) were called active. About 18% were inconclusive and are not listed. This is one part of the list.
Kindly apply the following: y if normalized growth is less than 0.9, n in every other case.

Compound	Label Class
O=c1c(-c2ccccc2)c(O)c2cccc3c4ccccc4n1c23	y
O=C(Nc1cccnc1)c1cc2c(s1)-c1ccccc1CC2	y
O=C(c1cc2c(s1)-c1ccccc1CC2)N1CCN(Cc2ccccc2)CC1	n
O=C(Nc1cc2c(s1)-c1cc(Cl)ccc1SC2)Oc1ccccc1	n
N#C/C(=N/Nc1cccc(C(F)(F)F)c1)C(=O)c1csc(-c2cccnc2)n1	y
FC(F)(F)c1cc(-c2ccc(Cl)cc2)n[nH]1	y
COc1ccc(C2CC(c3ccc(C)cc3C)=NN2C(C)=O)cc1 (stereo not given)	n
O=c1c(-c2ccccc2)c(O)c2cccc3c4c(n1c23)CCCC4	y
S=C(Nc1ccc(Cl)cc1)Nc1ccc(Cl)cc1	n
Cn1nc(-c2ccccc2)c(O)c(N=Nc2ccccc2)c1=O	n
CSc1nnc(COc2ccc(C)c3c2CCC3)n1-c1ccccc1	n
CC(=O)c1ccccc1C(=O)c1ccc(C(C)(C)C)cc1	n
Cc1ccc2nc(-c3ccc([N+](=O)[O-])o3)oc(=O)c2c1	y
CC(C)(C)c1ccc(C(=O)NNC(=S)Nc2ccc(Cl)cc2)cc1	n

* * *

Protocol Details: chemical genetic growth profiling, strain panel (AID 1159580);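 note: tested at 20 µM; growth read once vehicle control cultures reached saturation at 30 °C; 1 = growth at the plate median or of vehicle wells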
Condition Context: S. cerevisiae deletion strains, growth OD, locus YPR119W, strain clb2, stronger effect = lower value
The campaign covered roughly 5,500 compounds. About 2,000 (36%) were called active. About 18% were inconclusive and are not listed. The list shows a part of the results.
Response field label takes rule met when normalized growth is strictly below 1 and rule not met in all other cases.

Molecule	Label Class
CN1CCN(CCCN2c3ccccc3Sc3ccc(C(F)(F)F)cc32)CC1	rule met
COc1ccc(C(=O)c2ccccc2)c(O)c1O	rule met
O=c1[nH]cnc2c1ncn2C1O[C@H](CO)[C@@H](O)[C@H]1O (stereo partly specified)	rule not met
